# condition.set: 293.15 K; 101.33 kPa; Liquid; Sing-around technique in a fixed-path interferometer
measured.property: speed of sound (m/s)

> print(dat)
                       compound  measured.property  measured.result
1        CCCCCCN [1-hexanamine]     speed of sound             1324
2      CCCCNCCCC [dibutylamine]     speed of sound           1261.1
3       CCCNCCC [dipropylamine]     speed of sound           1209.4
4          CCCCN [1-butanamine]     speed of sound           1268.3
5  CN(C)C=O [dimethylformamide]     speed of sound           1476.8

====

# condition.set: 298.15 K; 101.33 kPa; Liquid; Vibrating tube method
Mark each entry MET if its mass density sits below 800 kg/m3, and NOT MET for all others.

> print(dat)
                       compound      cat
1                       CCCCCCN      MET
2  CN(C)C=O [dimethylformamide]  NOT MET
3                         CCCCN      MET
4                       CCCNCCC      MET
5                     CCCCNCCCC      MET
